- Tested system: CCK-B receptor (Cavia porcellus)
- Construct: guinoa pig brain (CCK-B); from tissue; host or cells: guinea pig brain
- Sequence (H0VZC5 1-426): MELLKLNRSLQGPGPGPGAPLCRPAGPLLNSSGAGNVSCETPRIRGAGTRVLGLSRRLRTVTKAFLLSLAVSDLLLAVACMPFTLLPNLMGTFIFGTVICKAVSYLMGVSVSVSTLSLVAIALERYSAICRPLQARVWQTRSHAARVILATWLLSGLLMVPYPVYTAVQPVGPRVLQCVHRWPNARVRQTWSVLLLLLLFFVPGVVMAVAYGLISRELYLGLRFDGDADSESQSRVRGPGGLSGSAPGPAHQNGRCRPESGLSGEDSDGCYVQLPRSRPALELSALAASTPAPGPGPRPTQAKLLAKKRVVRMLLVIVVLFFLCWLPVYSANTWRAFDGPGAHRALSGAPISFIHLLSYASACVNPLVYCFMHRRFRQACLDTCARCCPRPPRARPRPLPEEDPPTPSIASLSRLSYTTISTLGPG
- Assay name: displacement of ^125 I-CCK from guinea pig brain (CCK-B receptor binding)
- Run parameters: guinoa pig brain (CCK-B), read-out: CCK receptor binding IC50, ^125 I-CCK Brain
Structures can show the parent of a compound that is named as a salt.
Kindly state IC50 for each of the entries shown.
The reply should contain only the number, in nM.

// query Name the recorded IC50 for Cc1cccc(NC(=O)NC2N=C(C3CCNCC3)c3ccccc3N(CC(C)C)C2=O)c1 (stereo not drawn) [Example 9, trifluoroacetic acid salt] .
// result 290

// query # input compound: CCCN1C(=O)C(NC(=O)Nc2cccc(C)c2)N=C(C2CC(C)(C)CCN2)c2ccccc21 (single isomer, unassigned) [Example 8, hydrochloride] ; wanted: its IC50
// result 1.47

// query Which IC50 reading was recorded for the compound CN1C(=O)C(NC(=O)Nc2ccc3c(c2)CCC3)N=C(C2CCC(C)(C)CCN2)c2ccccc21 (single isomer, unassigned) [Example 7, hydrochloride] ?
// result 2.37

// query Return reported IC50; argument: CCCN1C(=O)C(NC(=O)Nc2cccc(C)c2)N=C(C2CCCCN2)c2ccccc21 (single isomer, unassigned) [Example 1, hydrochloride]
// result 41.8

// query Any idea what IC50 was measured for Cc1cccc(NC(=O)NC2N=C(C3CCN(C)CC3)c3ccccc3N(CC(C)C)C2=O)c1 (stereo not drawn) ?
// result 240

// query What value of IC50 has been recorded for this entry: CC(C)CN1C(=O)C(NC(=O)Nc2cccc(-c3nnn[nH]3)c2)N=C(C2CCNCC2)c2ccccc21 (stereo not drawn) [Example 11, trifluoroacetic acid salt]
// result 55
